Molecular target: T1, recombinant human IP-10 (hIP-10) (human, UniProt P02778 22-98)
T1 sequence (looked up): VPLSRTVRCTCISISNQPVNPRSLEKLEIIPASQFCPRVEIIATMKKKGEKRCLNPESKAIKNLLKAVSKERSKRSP
Assay: cell-based or functional assay
Binary classification by Calcium flux IC50 (nM); 10 nM rhIP-10, with 6 nM as an inclusive lower bound for Criterion met; all other cases are Criterion not met.

Some solved entries appear below for comparison.
(Q) Check this binder for Calcium flux IC50 (nM); 10 nM rhIP-10 at or above 6 nM: CF1H1R3P4_B5, IgG1 format (antibody, V domains shown) VH: QVQLVESGGGVVQPGRSLRLSCAASGFTFSNSGIHWVRQAPGKGLEWVAVISYDGSNKFYADSVKGRFTISRDNSKNTLYLQMNSLRAEDTAVYYCAKLRDNGEYLDYWGQGTLVTVSS VL: NFMLTQPHSVSESPGKTVTISCTGSGGSIDRNYVQWYQQRPGSSPTTVIYEDNQRPSGVPDRFSGSIDSSSNSASLTISGLKTEDEADYYCQSYVETPEWVFGGGTKLTVL
(A) Criterion not met

(Q) Check this binder for Calcium flux IC50 (nM); 10 nM rhIP-10 at or above 6 nM: CF1H1R3P3_G11, IgG1 format (antibody, V domains shown) VH: QVQLVESGGGVVQPGRSLRLSCAASGFTFSNSGIHWVRQAPGKGLEWVAVISYDGSNKFYADSVKGRFTISRDNSKNTLYLQMNSLRAEDTAVYYCAKLRDNGEYLDYWGQGTLVTVSS VL: NFMLTQPHSVSESPGKTVTISCTGSGGSIDRNYVQWYQQRPGSSPTTVIYEDNQRPSGVPDRFSGSIDSSSNSASLTISGLKTEDEADYYCQSYDPLPVWVFGGGTKLTVL
(A) Criterion met

(Q) Check this binder for Calcium flux IC50 (nM); 10 nM rhIP-10 at or above 6 nM: CB21R3P6_G7, IgG1 format (antibody, V domains shown) VH: QVQLVQSGAEVKKPGSSVTVSCKASGGTFSSFSITWLRQAPGQGLEWMGEITPMFGIANYAQKFQGRVTISADESTSTAYMELSGLTSEDTAMYYCARDGRFDVSDLLTDKPKVTINYNGMDVWGQGTLVTVSS VL: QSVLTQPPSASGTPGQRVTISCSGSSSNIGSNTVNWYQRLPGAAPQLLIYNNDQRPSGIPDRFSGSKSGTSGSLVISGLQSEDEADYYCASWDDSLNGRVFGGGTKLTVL
(A) Criterion met

(Q) Check this binder for Calcium flux IC50 (nM); 10 nM rhIP-10 at or above 6 nM: CC21R3P4_F4, IgG1 format (antibody, V domains shown) VH: QVQLVESGGGVAHSGKSLRLSCAASGFTFSNYGMHWVRQAPGKGLEWLAVISYDGSNRYYADSVKGRFTISRDNSNNTLNLQMSSLRAEDTALYYCAKDAGGPLDYWGRGTLVTVSS VL: SYVLTQPPSVSVAPGQMARITCGGNNIGDKSVQWYQQRPGQAPLLVVYDDSDRPSGIPERFSGSYSRNTATLTISRVEAGDEADYYCQVWDSSSDHPEVVFGGGTKLTVL
(A) Criterion met

(Q) Check this binder for Calcium flux IC50 (nM); 10 nM rhIP-10 at or above 6 nM: CB2R2P4_C3, IgG1 format (antibody, V domains shown) VH: QVTLRESGPALVKPTQTLTLTCTFSGFSLTTSGMSVIWIRQPPGKALEWLARIDSDDEKHYNTSLKTRLAISKDTSKNQVVLTMTNMDPVDTGTYYCARLRAGSGPYVFDSWGQGTTVTVSS VL: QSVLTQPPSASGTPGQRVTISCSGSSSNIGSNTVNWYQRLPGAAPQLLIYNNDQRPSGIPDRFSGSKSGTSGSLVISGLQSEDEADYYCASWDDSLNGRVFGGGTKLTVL
(A) Criterion met

(Q) Check this binder for Calcium flux IC50 (nM); 10 nM rhIP-10 at or above 6 nM: CC21R3P1_H6, IgG1 format (antibody, V domains shown) VH: QVQLVESGGGVAQSGKSLRLSCAASGFTFSNYGMHWVRQAPGKGLEWLAVISYDGSNRYYADSVKGRFTISRDNSNNTLNLQMSSLRAEDTALYYCAKDAGGPLDYWGKGTLVTVSS VL: VLTQLTQPPSVSLAPGQTATITCGGDNIGRKSVHWYQQKPGQAPVLVVYDDTDRPSGIPERFSGSNSGNTATLTISRVEAGDEADYYCQVWDSSIDHSWVFGGGTKLTVL
(A) Criterion met

(Q) Check this binder for Calcium flux IC50 (nM); 10 nM rhIP-10 at or above 6 nM: NI-0801, IgG1 format (antibody, V domains shown, Claims 7 and 21 swap the heavy and light chain numbers) VH: QVQLVESGGGVVQPGRSLRLSCAASGFTFSNSGIHWVRQAPGKGLEWVAVISYDGSNKYYADSVKGRFTISRDNSKNTLYLQMNSLRAEDTAVYYCARLRDNAEYTDYWGQGTLVTVSS VL: NFMLTQPHSVSESPGKTVTISCTGSGGSIASNYVQWYQQRPGSSPTTVIYEDNQRPSGVPDRFSGSIDSSSNSASLTISGLKTEDEADYYCQSYDPLPVWVFGGGTKLTVLG
(A) Criterion met

(Q) Check this binder for Calcium flux IC50 (nM); 10 nM rhIP-10 at or above 6 nM: CC21R3P1_F1, IgG1 format (antibody, V domains shown) VH: QVQLVESGGGVVQPGRSHTLSCAASGFAFKNSGIHWVRQAPGKGLEWVAVISYDGSNKFYADSVKGRFTISRDNSQNTVYLQMTDLRPDDTAVYYCARDGSESEYLDYWGKGTLVTVSS VL: NFMLTQPHSVSESPGKTVTISCTGSGGSIDRNYVQWYQQRPGSAPITVIYEDNQRPSGVPDRFSGSIDSSSNSASLTISGLRTDDEADYYCQSYDSINLWVFGGGTKVTVL
(A) Criterion met

// switching to the query binder
(Q) Check this binder for Calcium flux IC50 (nM); 10 nM rhIP-10 at or above 6 nM: CF1N1R3P4_C7, IgG1 format (antibody, V domains shown) VH: QVQLVESGGGVVQPGRSLRLSCAASGFTFSNSGIHWVRQAPGKGLEWVAVISYDGSNKFYADSVKGRFTISRDNSKNTLYLQMNSLRAEDTAVYYCAKLRDNAEYTDYWGQGTLVTVSS VL: NFMLTQPHSVSESPGKTVTISCTGSGGSIDRNYVQWYQQRPGSSPTTVIYEDNQRPSGVPDRFSGSIDSSSNSASLTISGLKTEDEADYYCQSYDPLPVWVFGGGTKLTVL
(A) Criterion not met
